Tested on: SKBr3 cells
Test: Cytotoxicity against SKBr3 cells (CellTiter-Glo, 72 h)
Details: Homo sapiens, SK-BR-3, 72 h, read-out: Cytotoxicity against SKBr3 Cells (IC50, nM)
Examples of molecules with documented IC50 follow.
Value expressed in nM; do not type the unit.

Solved entries:
molecule="COC1=C2C[C@@H](C)C[C@H](OC)[C@H](OC)[C@@H](C)/C=C(\\C)[C@H](OC(N)=O)[C@@H](OC)/C=C\\C=C(/C)C(=O)NC(=CC1=O)C2=O [Compound I-e, 11-O-methyl-geldanamycin]" endpointresult=9.1
molecule="CO[C@H]1[C@@H](OC)C[C@H](C)CC2=C(NCCc3c[nH]cn3)C(=O)C=C(NC(=O)/C(C)=C/C=C\\[C@H](OC)[C@@H](OC(N)=O)/C(C)=C/[C@@H]1C)C2=O [Compound I-h]" endpointresult=60
molecule="CO[C@H]1[C@@H](OC)C[C@H](C)CC2=C(NCCN(C)C)C(=O)C=C(NC(=O)/C(C)=C/C=C\\[C@H](OC)[C@@H](OC(N)=O)/C(C)=C/[C@@H]1C)C2=O [Compound I-b]" endpointresult=12
molecule="CO[C@H]1[C@@H](OC)C[C@H](C)CC2=C(NCCF)C(=O)C=C(NC(=O)/C(C)=C/C=C\\[C@H](OC)[C@@H](OC(N)=O)/C(C)=C/[C@@H]1C)C2=O [Compound I-c]" endpointresult=250

Kindly consider the entry below.
[in] Provide value of IC50 for this record tested with SKBr3 cells: COC1=C2C[C@@H](C)C[C@H](OC)[C@H](O)[C@@H](C)/C=C(\C)[C@H](OC(N)=O)[C@@H](OC)/C=C\C=C(/C)C(=O)NC(=CC1=O)C2=O [Geldanamycin]
[out] 23

----------
Test system: CCRF-CEM/taxol
Assay: Cytotoxicity, CCRF-CEM/taxol
Conditions: Homo sapiens, read-out: Compound Cytotoxicity (IC50, nM)
Define the label as MET when IC50 is strictly less than 2000 nM and as NOT MET in all remaining cases.

[in] Would you kindly verify if IC50 of CO[C@H]1[C@@H](OC)C[C@H](C)CC2=C(NCCN(C)C)C(=O)C=C(NC(=O)/C(C)=C/C=C\[C@H](OC)[C@@H](OC(N)=O)/C(C)=C/[C@@H]1C)C2=O is strictly less than 2000 nM?
[out] MET

[in] Find out if reported IC50 for C=CCNC1=C2C[C@@H](C)C[C@H](OC)[C@H](OC)[C@@H](C)/C=C(\C)[C@H](OC(N)=O)[C@@H](OC)/C=C\C=C(/C)C(=O)NC(=CC1=O)C2=O is less than 2000 nM
[out] NOT MET

[in] For this molecule, is IC50 lower than 2000 nM? CO[C@H]1[C@@H](OC)C[C@H](C)CC2=C(NCCN3CCCC3)C(=O)C=C(NC(=O)/C(C)=C/C=C\[C@H](OC)[C@@H](OC(N)=O)/C(C)=C/[C@@H]1C)C2=O
[out] MET

[in] Is the reported IC50 for CO[C@H]1[C@@H](OC)C[C@H](C)CC2=C(NCCN3CCC3)C(=O)C=C(NC(=O)/C(C)=C/C=C\[C@H](OC)[C@@H](OC(N)=O)/C(C)=C/[C@@H]1C)C2=O strictly below 2000 nM?
[out] MET

[in] # TODO verify IC50 < 2000 nM strictly for this molecule: CO[C@H]1[C@@H](OC)C[C@H](C)CC2=C(N)C(=O)C=C(NC(=O)/C(C)=C/C=C\[C@H](OC)[C@@H](OC(N)=O)/C(C)=C/[C@@H]1C)C2=O
[out] MET

[in] API: query returns whether the molecule falls strictly under 2000 nM in IC50. Query: CO[C@H]1[C@@H](OC)C[C@H](C)CC2=C(N3CCC3)C(=O)C=C(NC(=O)/C(C)=C/C=C\[C@H](OC)[C@@H](OC(N)=O)/C(C)=C/[C@@H]1C)C2=O
[out] NOT MET

[in] Here's an entry: CO[C@H]1[C@@H](OC)C[C@H](C)CC2=C(NCCF)C(=O)C=C(NC(=O)/C(C)=C/C=C\[C@H](OC)[C@@H](OC(N)=O)/C(C)=C/[C@@H]1C)C2=O . Is its IC50 below 2000 nM?
[out] NOT MET

[in] Find out if reported IC50 for CO[C@H]1[C@@H](OC)C[C@H](C)CC2=C(NCCc3c[nH]cn3)C(=O)C=C(NC(=O)/C(C)=C/C=C\[C@H](OC)[C@@H](OC(N)=O)/C(C)=C/[C@@H]1C)C2=O is less than 2000 nM
[out] NOT MET

----------
Tested on: CCRF-CEM
Test: Cytotoxicity, CCRF-CEM
Details: Homo sapiens, read-out: Compound Cytotoxicity (IC50, nM)
Parameter IC50: see the listing below.
I only need the number, in nM, no unit after it.

Worked cases, answers included:
molsmiles=CO[C@H]1[C@@H](OC)C[C@H](C)CC2=C(NCCN3CCCC3)C(=O)C=C(NC(=O)/C(C)=C/C=C\[C@H](OC)[C@@H](OC(N)=O)/C(C)=C/[C@@H]1C)C2=O unitabbreviation=nM endpointresult=160
molsmiles=CO[C@H]1[C@@H](OC)C[C@H](C)CC2=C(NCCN(C)C)C(=O)C=C(NC(=O)/C(C)=C/C=C\[C@H](OC)[C@@H](OC(N)=O)/C(C)=C/[C@@H]1C)C2=O unitabbreviation=nM endpointresult=58

# evaluate next
[in] Param item = CO[C@H]1[C@@H](OC)C[C@H](C)CC2=C(N)C(=O)C=C(NC(=O)/C(C)=C/C=C\[C@H](OC)[C@@H](OC(N)=O)/C(C)=C/[C@@H]1C)C2=O ; retrieve measured IC50.
[out] 250

----------
Tested on: SKBr3 cells
Test: Cytotoxicity against SKBr3 cells (CellTiter-Glo, 72 h)
Settings: Homo sapiens, SK-BR-3, 72 h, read-out: Cytotoxicity against SKBr3 Cells (IC50, nM)
readoutType: IC50 (nM)
Respond with the bare value in nM.

Observe how each entry below is paired with its result.
molsmiles=C=CCNC1=C2C[C@@H](C)C[C@H](OC)[C@H](OC)[C@@H](C)/C=C(\C)[C@H](OC(N)=O)[C@@H](OC)/C=C\C=C(/C)C(=O)NC(=CC1=O)C2=O assaytarget="SKBr3 cells" endpointresult=280
molsmiles=CO[C@H]1[C@@H](OC)C[C@H](C)CC2=C(N)C(=O)C=C(NC(=O)/C(C)=C/C=C\[C@H](OC)[C@@H](OC(N)=O)/C(C)=C/[C@@H]1C)C2=O assaytarget="SKBr3 cells" endpointresult=84
molsmiles=CO[C@H]1[C@@H](OC)C[C@H](C)CC2=C(N3CCC3)C(=O)C=C(NC(=O)/C(C)=C/C=C\[C@H](OC)[C@@H](OC(N)=O)/C(C)=C/[C@@H]1C)C2=O assaytarget="SKBr3 cells" endpointresult=24

[in] # IC50 lookup, item CO[C@H]1[C@@H](OC)C[C@H](C)CC2=C(NCCN3CCC3)C(=O)C=C(NC(=O)/C(C)=C/C=C\[C@H](OC)[C@@H](OC(N)=O)/C(C)=C/[C@@H]1C)C2=O
[out] 130

[in] // query IC50 value for entry CO[C@H]1[C@@H](OC)C[C@H](C)CC2=C(NCCN3CCCC3)C(=O)C=C(NC(=O)/C(C)=C/C=C\[C@H](OC)[C@@H](OC(N)=O)/C(C)=C/[C@@H]1C)C2=O
[out] 160

[in] Could you share which IC50 value was measured for CO[C@H]1[C@@H](OC)C[C@H](C)CC2=C(NCCN3CC3)C(=O)C=C(NC(=O)/C(C)=C/C=C\[C@H](OC)[C@@H](OC(N)=O)/C(C)=C/[C@@H]1C)C2=O ?
[out] 36

Reference source for all entries: patent US6855705B1
